# Study system: T1, human ROR2 (receptor tyrosine kinase-like orphan receptor 2) (human, UniProt Q01974 34-403, limits assumed)
# T1 construct: Antigen of the ELISA, SPR and pH titration assays; also called hROR2
# T1 sequence (Q01974 34-403 limits assumed): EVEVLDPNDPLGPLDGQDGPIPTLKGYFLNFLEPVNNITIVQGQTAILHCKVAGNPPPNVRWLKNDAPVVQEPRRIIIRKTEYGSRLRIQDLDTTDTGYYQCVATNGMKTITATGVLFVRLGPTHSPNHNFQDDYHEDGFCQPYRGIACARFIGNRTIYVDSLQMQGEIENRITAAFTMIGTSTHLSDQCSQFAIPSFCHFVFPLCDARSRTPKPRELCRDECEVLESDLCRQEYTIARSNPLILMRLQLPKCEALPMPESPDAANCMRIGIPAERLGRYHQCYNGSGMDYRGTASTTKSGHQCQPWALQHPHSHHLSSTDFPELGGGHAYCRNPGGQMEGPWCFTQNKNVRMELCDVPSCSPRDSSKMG
# Experiment description: affinity ELISA on human ROR2, pH 7.4
# Set-up: unit not given here
Affinity ELISA, pH 7.4 values by entry

HC-A097S (antibody, V domains shown, CPE single point mutant of parent VH 48.6-HC-WT) VH: EVQLQQSGPELVKPGASVKISCKTSGYTFTEYTMHWMKQSHRKSLEWIGGINTNNGGTGYNQKFKGKATLTVDKSSSTAYMELRSLTSEDSAVYFCSRGSLYSYGNSYFDYWGQGTLVTVSS VL: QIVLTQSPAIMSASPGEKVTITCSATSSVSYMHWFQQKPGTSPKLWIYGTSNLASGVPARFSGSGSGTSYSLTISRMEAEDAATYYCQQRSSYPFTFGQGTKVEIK; 1.69

Kindly review the next binder as well.
Query: Return Affinity ELISA, pH 7.4 for the following binder: HC-D110L (antibody, V domains shown, CPE single point mutant of parent VH 48.6-HC-WT) VH: EVQLQQSGPELVKPGASVKISCKTSGYTFTEYTMHWMKQSHRKSLEWIGGINTNNGGTGYNQKFKGKATLTVDKSSSTAYMELRSLTSEDSAVYFCARGSLYSYGNSYFLYWGQGTLVTVSS VL: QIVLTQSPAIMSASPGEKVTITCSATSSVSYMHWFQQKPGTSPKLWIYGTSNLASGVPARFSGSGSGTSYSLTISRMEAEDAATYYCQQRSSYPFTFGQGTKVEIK
Result: 1.4
